# SYSTEM_UNDER_TEST: T1, human SIRPα v1 ECD recombinant protein (tag not given) (human, UniProt P78324 31-373)
# T1 construct: extracellular domain; also called biotin labeled soluble human SIRPα v1 ECD recombinant protein; ELISA microplate coated human SIRPα v1 ECD
# TEST_SUMMARY: competitive ELISA, mFc-CD47 ECD on coated SIRPα v1 ECD
MEASURE_NAME: IC50 (nM)
All answers are understood in nM, so give the number only.

See these solved cases before continuing.
| BINDER | MEASURE_NAME | RESULT_UNIT | RECORDED_NUMBER |
| --- | --- | --- | --- |
| hu025.059 (antibody, V domains shown, Humanized 025; also called hu025.59) VH: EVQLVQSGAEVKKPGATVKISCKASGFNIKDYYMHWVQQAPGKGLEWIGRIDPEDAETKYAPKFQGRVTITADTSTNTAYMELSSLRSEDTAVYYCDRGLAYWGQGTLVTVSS VL: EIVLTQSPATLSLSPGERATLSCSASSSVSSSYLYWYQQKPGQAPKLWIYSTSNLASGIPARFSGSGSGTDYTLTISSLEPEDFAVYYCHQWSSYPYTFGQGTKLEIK | IC50 | nM | 2.48 |
| hu025.023 (antibody, V domains shown, Humanized 025; also called hu025.23) VH: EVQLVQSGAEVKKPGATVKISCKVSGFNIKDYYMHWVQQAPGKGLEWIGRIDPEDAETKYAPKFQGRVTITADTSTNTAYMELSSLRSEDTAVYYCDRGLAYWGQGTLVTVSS VL: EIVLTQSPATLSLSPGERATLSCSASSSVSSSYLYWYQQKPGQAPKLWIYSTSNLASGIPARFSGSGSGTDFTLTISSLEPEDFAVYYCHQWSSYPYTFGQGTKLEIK | IC50 | nM | 2.6 |
| hu025.021 (antibody, V domains shown, Humanized 025; also called hu025.21) VH: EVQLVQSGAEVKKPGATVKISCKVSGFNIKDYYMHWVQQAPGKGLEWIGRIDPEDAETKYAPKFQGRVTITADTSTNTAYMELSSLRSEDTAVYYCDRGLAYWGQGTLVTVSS VL: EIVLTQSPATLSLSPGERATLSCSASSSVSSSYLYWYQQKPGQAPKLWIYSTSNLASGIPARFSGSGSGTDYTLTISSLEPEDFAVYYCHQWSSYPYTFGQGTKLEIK | IC50 | nM | 2.07 |

Next binder, please.
// sample hu025.060 (antibody, V domains shown, Humanized 025; also called hu025.60) VH: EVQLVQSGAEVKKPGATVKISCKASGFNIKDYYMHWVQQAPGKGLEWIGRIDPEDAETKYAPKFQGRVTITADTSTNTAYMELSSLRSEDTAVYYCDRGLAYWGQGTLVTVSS VL: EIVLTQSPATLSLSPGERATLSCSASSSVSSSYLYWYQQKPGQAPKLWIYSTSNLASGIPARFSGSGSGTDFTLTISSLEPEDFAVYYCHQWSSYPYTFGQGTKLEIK , its IC50 was 2.15
